Experiment: Solubility of compound A in aqueous solutions with different pHs
Format: physicochemical
Conditions: aqueous buffer, thermodynamic from solid, pH 3.0 Britton Robinson buffer, 25° C.
Test readout: solubility at 30 min

Ask: Return reported solubility at 30 min; argument: CCOc1nc2cccc(C(=O)OCc3oc(=O)oc3C)c2n1Cc1ccc(-c2ccccc2-c2noc(=O)[nH]2)cc1.[K]
Result: < 10 µg/mL

====

Assay: Solubility of compound A in aqueous solutions with different pHs
Assay type: physicochemical
Conditions: aqueous buffer, thermodynamic from solid, pH 4.0 Britton Robinson buffer, 25° C.
Test readout: solubility at 30 min

Ask: Return reported solubility at 30 min; argument: CCOc1nc2cccc(C(=O)OCc3oc(=O)oc3C)c2n1Cc1ccc(-c2ccccc2-c2noc(=O)[nH]2)cc1.[K]
Result: < 10 µg/mL
